# Test system: OVCAR-8 ovarian
# assay-details: NCI tumour cell line growth inhibition, 48 h
So I've got a bunch of molecules here, and I need their TGI values.
One number for each entry, in µM.

Asked: Please give measured TGI of the following entry: COc1ccc2c(c1)c1ccc3c(c1n2C)C(=O)C=CC3=O
Given back: 26.6

Asked: Please supply the value of reported TGI for the item OC(c1cc2ccccc2[nH]1)C(O)(c1cc2ccccc2[nH]1)c1cc2ccccc2[nH]1 (configuration not stated)
Given back: 75

For each of the items listed, what is its TGI?
1. Cc1ccc2c(ccc3ncc(CNc4ccc(NS(C)(=O)=O)cc4)c32)[nH]1
2. C[C@]12CC[C@@H]3c4ccc(O)cc4CC[C@H]3[C@@H]1CC(Cc1ccccc1)(Cc1ccccc1)C2=O
3. Cc1cc(C)c([I+]c2c(C)cc(C)cc2C)c(C)c1

Given back:
[81.1, 61.3, 1.09]

====

# System: NCI/ADR-RES ovarian
# assay-details: NCI tumour cell line growth inhibition, 48 h
What TGI was measured for each of the following?

Solved entries:
Asked: Give me measured TGI, please, for this molecule: O=C(O)c1nn(-c2ccc(Cl)cc2)c2c1C(=O)c1ccccc1C2=O
Given back: > 100 µM

Asked: Identify measured TGI corresponding to Cc1ccc2c(ccc3ncc(CNc4ccc(NS(C)(=O)=O)cc4)c32)[nH]1
Given back: > 100 µM

Asked: Could you please provide reported TGI for CCc1cc2c(cc1C(=O)CCC(=O)O)CC1(C2)Cc2cc(CC)c(C(=O)CCC(=O)O)cc2C1 ? Thanks!
Given back: > 100 µM

Below is a list of molecules. For each, state its recorded TGI.
1. COc1cc(OCCCN2CCCC2)ccc1Nc1ncc(Cl)c(Nc2ccccc2P(C)(C)=O)n1
2. CC(=O)OC(OC(C)=O)c1c2ccccc2cc2ccccc12
3. COc1cc2c(c(OC)c1OC)-c1ccc(OC)c(=O)cc1C(NC(=O)CCCCCNc1ccc(N=[N+]=[N-])cc1[N+](=O)[O-])CC2 (stereo not drawn)
4. Oc1ccc(Br)cc1C=NC1CCCCC1
5. CO[C@H]1/C=C/O[C@@]2(C)Oc3c(C)c(O)c4c(O)c(c(/C=N/N5C(C)CN(Cc6ccc(C#N)cc6)CC5C)c(O)c4c3C2=O)NC(=O)/C(C)=C\C=C\[C@H](C)[C@H](O)[C@@H](C)[C@@H](O)[C@@H](C)[C@H](OC(C)=O)[C@@H]1C (stereo partly drawn)

Given back:
1. > 77.4 µM
2. 46.7 µM
3. 5.62 µM
4. > 100 µM
5. 46 µM

====

# Test system: SNB-19 CNS
# assay-details: NCI tumour cell line growth inhibition, 48 h; in the data active = GI50 below about 0.43 µM; inactive = the rest
Hi there, use one of these labels in your reply, thanks! Yes = active, No = inactive

Asked: Assay result, entry COc1cc(OCCCN2CCCC2)ccc1Nc1ncc(Cl)c(Nc2ccccc2P(C)(C)=O)n1 — outcome?
Given back: No

Asked: Hey, what did the test say about CCCCNC(=O)Oc1ccc(/C(=C(\C)c2ccc(OC)cc2)c2ccc(OCCN3CCCCC3)cc2)cc1 ?
Given back: No

Asked: Please state the recorded outcome for this molecule: N#Cc1c(N)c(C(=O)c2ccc3c(c2)OCCO3)n2c1CCCC2
Given back: No

Further cases:
Asked: Answer briefly: the call reported for O=C(N/N=C/c1ccc([N+](=O)[O-])cc1)c1ccccc1Nc1ccnc(C(F)(F)F)c1 in this assay.
Given back: No

Asked: What call does the record list for O=C(Nc1ccc(Cl)cc1)c1cc(NCc2cc(O)ccc2O)ccc1O ?
Given back: No

Asked: Identify the outcome logged in this assay for the molecule shown: COC(=O)[C@@H](C)C[C@H](Cc1ccc(F)cc1)NC(=O)c1csc([C@@H](C[C@H](C(C)C)N(C)C(=O)[C@@H](NC(=O)[C@H]2CCCCN2C)C2CC2)OC(C)=O)n1
Given back: Yes

Asked: I would be grateful if you could indicate the recorded call for C[C@]12CC[C@@H]3c4ccc(O)cc4CC[C@H]3[C@@H]1CC(Cc1ccccc1)(Cc1ccccc1)C2=O .
Given back: No

Asked: Look up the recorded call for COc1cc(/C=C2\C(=O)Nc3ccc(Cl)cc32)cc(OC)c1OC in this test.
Given back: No

Asked: Kindly provide the recorded test outcome for the following molecule: CCC(CO)Nc1nc(NCc2ccccc2)c2n[nH]c(C(C)C)c2n1 (centres undefined)
Given back: No

====

Please respond with reported TGI for every item in the list.
# Tested on: SW-620 colon
# assay-details: NCI tumour cell line growth inhibition, 48 h

// worked examples, TGI included
Asked: Return TGI for the following molecule: COC(=O)[C@H](Cc1ccccc1)NC(=O)OCC1OC(n2cc(C)c(=O)[nH]c2=O)CC1N=[N+]=[N-] (stereo not given in full)
Given back: > 100 µM

Asked: Using known records, supply TGI for CCCNC(=O)Cn1c2c(c3ccccc31)CCCC2
Given back: > 100 µM

Asked: Indicate the recorded TGI value for this molecule: CC1=C/C(=N\NS(=O)(=O)c2ccc([N+](=O)[O-])cc2)CC(C)(C)C1
Given back: > 100 µM

Asked: Consider the molecule COc1ccc2c(c1)c1ccc3c(c1n2C)C(=O)C=CC3=O and give its recorded TGI.
Given back: 10.7 µM

Asked: Tell me TGI reported for CO/S(=N/S(=O)(=O)c1ccccc1)c1ccccc1[N+](=O)[O-] (stereo not given)
Given back: > 100 µM

Asked: Supply TGI value. Item: CCOc1cc2c(cc1O)C=C[C@@H]1[C@@H]2CC[C@]2(C)[C@@H](O)CC[C@@H]12
Given back: > 35.3 µM

The following molecules each have a reported value; give each one's TGI.
1. C=CC(=C)CCC(Br)C(C)(C)Br (stereo not given)
2. COc1nc2ccc(Cl)c(C(O)c3ccccc3)c2nc1OC (stereo not given)
3. C[C@H](CCC(=O)O)[C@H]1CC[C@H]2[C@@H]3[C@H](O)[C@H](O)[C@@H]4C[C@H](O)CC[C@]4(C)[C@H]3CC[C@]12C
4. N#Cc1c(N)c(C(=O)c2ccc3c(c2)OCCO3)n2c1CCCC2

Given back:
1. > 100 µM
2. 82.7 µM
3. > 100 µM
4. > 100 µM

====

# Test system: MOLT-4 leukemia
# assay-details: NCI tumour cell line growth inhibition, 48 h
measured-parameter: GI50

Use these answered entries as a reference point.
Asked: Answer with GI50 of O=C(Nc1ccc(Cl)cc1)c1cc(NCc2cc(O)ccc2O)ccc1O measured for MOLT-4 leukemia.
Given back: 3.28 µM

Asked: // fetch GI50; item: O=c1cc(-c2ccccc2)oc2c(O)c(O)ccc12 ; system: MOLT-4 leukemia
Given back: 5.09 µM

Asked: GET GI50 | system: MOLT-4 leukemia | item: O=c1oc2ccc(F)cc2c(=O)n1-c1ccc(I)cc1F
Given back: 1.07 µM

Give one value of GI50 per listed compound.
1. CCCCCCCC(=O)Nc1nc2[nH]c(CN3CCN(Cc4cccc(I)c4)CC3)c(CN3CCN(Cc4cccc(I)c4)CC3)c2c(=O)[nH]1
2. COc1ccc(NC(=O)c2ccc(C(F)(F)F)nc2Nc2ccc(Cl)cc2C)cc1Cl
3. C/C(COc1ccc2oc(-c3ccccc3)cc(=O)c2c1)=N\O
4. CCC(CO)Nc1nc(NCc2ccccc2)c2n[nH]c(C(C)C)c2n1 (centres undefined)

Given back:
1: 0.934 µM; 2: 1.56 µM; 3: 89.2 µM; 4: 11.1 µM

# per-item lookup of GI50; items listed below
1. N#Cc1ccc2[nH]cc(Cc3c[nH]c4ccc(C#N)cc34)c2c1
2. [Mn+3].[O-][Cl+3]([O-])([O-])O.[O-]c1ccccc1C=NCCN1CC1.[O-]c1ccccc1C=NCCN1CC1
3. COc1ccc(OC)c(-c2cc(-c3ccc(Cl)cc3)nn2-c2ccccc2)c1
4. COc1ccc2c(c1)/C(=C\c1c(-c3ccccc3)nc3sccn13)C(=O)N2
5. O=C(N/N=C/c1ccc([N+](=O)[O-])cc1)c1ccccc1Nc1ccnc(C(F)(F)F)c1
6. COC(=O)[C@@H](C)C[C@H](Cc1ccc(F)cc1)NC(=O)c1csc([C@@H](C[C@H](C(C)C)N(C)C(=O)[C@@H](NC(=O)[C@H]2CCCCN2C)C2CC2)OC(C)=O)n1
7. COc1ccc2cc(C(=O)N3CCC([C@@H](C)C(=O)NCc4ccc5c(c4)OCO5)CC3)[nH]c2c1

Given back:
1. 7.53 µM
2. 5.57 µM
3. 8.7 µM
4. 12.5 µM
5. 5.33 µM
6. 0.338 µM
7. > 100 µM

====

# Tested on: NCI-H460 lung
measured-parameter: GI50

Previously resolved entries follow.
Asked: Read off the recorded GI50 for FC(F)(F)c1cccc(Oc2ccc(Nc3ncnc4ccc(OCCCN5CCOCC5)cc34)cc2Cl)c1
Given back: 1.9 µM

Asked: Look up GI50 of CCCCNC(=O)Oc1ccc(/C(=C(\C)c2ccc(OC)cc2)c2ccc(OCCN3CCCCC3)cc2)cc1 and report it.
Given back: 1.94 µM

Asked: Quick one: give measured GI50 for COc1ccc(-c2c(NC(=O)Nc3ccc(Cl)c(C(F)(F)F)c3)cnn2-c2ccc(S(N)(=O)=O)cc2)cc1
Given back: 3.5 µM

Asked: Look up and state reported GI50 for COc1cc(OCCCN2CCCC2)ccc1Nc1ncc(Cl)c(Nc2ccccc2P(C)(C)=O)n1
Given back: 2.47 µM

Asked: Given Cn1cc(-c2ncnc3ccc(-c4cnc(Cl)c(NS(C)(=O)=O)c4)cc23)c2ccccc21 , respond with its GI50.
Given back: 0.365 µM

Answer for every listed entry: what is its GI50? The entries follow.
1. N#Cc1c(N)c(C(=O)c2ccc3c(c2)OCCO3)n2c1CCCC2
2. COc1ccc2c(c1)C(=O)/C(=C/c1ccc(O)cc1)O2
3. COc1nc2c(c(=O)n1C)CN(c1ccccc1)C(=O)CN2C
4. C=C[C@@H]1CCC/C=C/[C@@H]2C[C@H](O)C[C@H]2[C@H](O)/C=C/C(=O)O1

Given back:
1: 3.19 µM; 2: 20.3 µM; 3: 60.2 µM; 4: 3.76 µM
